Recorded EC50 by entry
System: IL-6 (THP-1 cells)
Test: IL-6 inhibition in LPS-stimulated THP-1 monocytes (HTRF)
Type: cell-based
Conditions: Homo sapiens, 500 ng/mL LPS, IL-6 HTRF, Table 6

Answered examples (2):
Prompt: Record lookup: for IL-6 (THP-1 cells), what EC50 belongs to Cc1ncc(-c2ccc3[nH]nc(-c4nc5c(-c6ccoc6)cccc5[nH]4)c3n2)n1C ?
Response: 9.37 µM

Prompt: What measured EC50 is associated with Oc1cncc(-c2ccc3[nH]nc(-c4nc5c(-c6cccc(F)c6)cccc5[nH]4)c3n2)c1 on IL-6 (THP-1 cells)?
Response: 9.7 µM

---
Prompt: Hi! What's the reported EC50 for O=C(Nc1cncc(-c2ccc3[nH]nc(-c4nc5c(-c6ccc(F)cc6)cccc5[nH]4)c3n2)c1)C1CCC1 on IL-6 (THP-1 cells)?
Response: > 10 µM

Prompt: What EC50 appears in the records for this compound with IL-6 (THP-1 cells)? Cc1ccncc1-c1ccc2[nH]nc(-c3nc4c(-c5cc(F)cc(CNS(C)(=O)=O)c5)cccc4[nH]3)c2n1
Response: 2.12 µM
